Sequence of the target: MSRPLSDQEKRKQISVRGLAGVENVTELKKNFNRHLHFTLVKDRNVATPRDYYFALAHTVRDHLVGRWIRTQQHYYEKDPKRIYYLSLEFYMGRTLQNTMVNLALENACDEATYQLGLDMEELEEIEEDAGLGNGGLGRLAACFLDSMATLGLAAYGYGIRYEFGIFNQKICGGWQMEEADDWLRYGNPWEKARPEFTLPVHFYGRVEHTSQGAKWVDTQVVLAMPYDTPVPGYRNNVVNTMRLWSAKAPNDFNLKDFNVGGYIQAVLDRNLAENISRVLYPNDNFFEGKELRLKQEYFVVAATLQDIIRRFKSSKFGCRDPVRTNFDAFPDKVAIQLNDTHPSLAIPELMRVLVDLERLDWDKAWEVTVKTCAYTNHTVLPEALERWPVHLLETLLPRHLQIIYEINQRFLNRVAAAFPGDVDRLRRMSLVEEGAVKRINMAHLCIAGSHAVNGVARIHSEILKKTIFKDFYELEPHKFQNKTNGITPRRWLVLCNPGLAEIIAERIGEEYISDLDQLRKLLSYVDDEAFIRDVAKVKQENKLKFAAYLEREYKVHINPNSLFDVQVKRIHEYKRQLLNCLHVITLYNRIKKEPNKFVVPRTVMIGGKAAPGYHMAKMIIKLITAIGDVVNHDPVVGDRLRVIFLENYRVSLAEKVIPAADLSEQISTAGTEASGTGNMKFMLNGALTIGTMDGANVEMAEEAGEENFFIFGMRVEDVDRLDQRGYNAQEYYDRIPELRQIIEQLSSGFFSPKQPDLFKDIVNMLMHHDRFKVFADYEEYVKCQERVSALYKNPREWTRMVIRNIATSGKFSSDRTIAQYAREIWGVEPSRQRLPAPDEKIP
Assign pIC50 to each entry below.
Lab note: report pIC50 as minus log10 of the concentration in molar units, number only.

What the record says about CC[C@H]1O[C@@H](NC(=S)N/N=C/c2ccccc2O)[C@H](O)[C@@H](O)[C@@H]1O : pIC50 is 4.58

What the record says about CC[C@H]1O[C@@H](NC(=S)N/N=C/c2ccccc2[N+](=O)[O-])[C@H](O)[C@@H](O)[C@@H]1O : pIC50 is 3.31

What the record says about CC[C@H]1O[C@@H](NC(=S)N/N=C/c2ccc(O)cc2)[C@H](O)[C@@H](O)[C@@H]1O : pIC50 is 3.47

Measured values drawn from ChEMBL document CHEMBL1275370 for this set.
